Recorded values, source patent US9670227B2.

biological target: Mcl-1 protein (UniProtKB primary accession number: Q07820) (Homo sapiens, UniProt Q07820); test: Inhibition of Mcl-1 by fluorescence polarisation, Method 1; assay type: binding; conditions: fluorescence polarisation test; Method 2 values are underlined in the patent (underlining not visible here); read-out: IC50 (M) Mcl-1 FP
Sequence (Q07820 whole entry): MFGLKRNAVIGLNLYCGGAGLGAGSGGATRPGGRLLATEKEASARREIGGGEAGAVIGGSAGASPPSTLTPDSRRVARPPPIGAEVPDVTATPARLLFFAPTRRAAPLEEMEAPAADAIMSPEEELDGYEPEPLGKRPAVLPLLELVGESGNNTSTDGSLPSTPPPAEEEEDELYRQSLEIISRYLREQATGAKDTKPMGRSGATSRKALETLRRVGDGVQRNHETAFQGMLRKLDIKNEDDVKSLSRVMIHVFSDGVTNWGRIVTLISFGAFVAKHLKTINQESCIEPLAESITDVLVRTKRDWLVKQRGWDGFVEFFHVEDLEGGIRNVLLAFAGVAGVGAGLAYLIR
experimentalEndpoint: IC50 (M)

// below: answered compounds
Cc1c(-c2c(-c3ccc(F)o3)sc3ncnc(OC(Cc4ccccc4OCc4ccnc(C5CC5)n4)C(=O)O)c23)ccc(OCCN2CCN(C)CC2)c1Cl (stereo not shown) :: 5.3e-09
COCCCn1nccc1COc1ccccc1CC(Oc1ncnc2sc(-c3ccc(F)cc3)c(-c3ccc(OCCN4CCN(C)CC4)c(Cl)c3C)c12)C(=O)O (stereo not shown) :: 2.9e-09
Cc1cccc(COc2ccccc2CC(Oc2ncnc3sc(-c4ccco4)c(-c4ccc(OCCN5CCN(C)CC5)c(Cl)c4C)c23)C(=O)O)n1 (stereo not shown) :: 5.1e-09
Cc1c(-c2c(-c3ccco3)sc3ncnc(OC(Cc4ccccc4CN)C(=O)O)c23)ccc(OCCN2CCN(C)CC2)c1Cl (stereo not shown) :: 3e-08

(a) CCCn1nccc1COc1ccccc1CC(Oc1ncnc2sc(-c3ccc(F)c(OC)c3)c(-c3ccc(OCCN4CCN(C)CC4)c(Cl)c3C)c12)C(=O)O (stereo not shown)
(b) Cc1c(-c2c(-c3ccc(F)cc3)sc3ncnc(OC(Cc4ccccc4OCc4ccnc(OC(C)C)n4)C(=O)O)c23)ccc(OCCN2CCN(C)CC2)c1Cl (stereo not shown)
In: Hi team, can someone confirm which has the larger IC50: a or b ? Thanks. Mark your selection by writing its label.
Out: b
(b: 5.8e-09 M, a: 3.5e-09 M)

(A) Cc1c(-c2c(-c3ccco3)sc3ncnc(OC(Cc4ccccc4OCc4cnc(N5CCCC5)nc4)C(=O)O)c23)ccc(OCCN2CCN(C)CC2)c1Cl (stereo not shown)
(B) Cc1c(-c2c(-c3ccco3)sc3ncnc(O[C@@H](C(=O)O)[C@@H](O)c4ccccc4)c23)ccc(OCCN2CCN(C)CC2)c1Cl (single isomer, unassigned) [Example 342]
In: Among A and B , which shows a numerically higher IC50 result? // respond with label for picked entry
Out: B

(1) COCCN1CCC(COc2ccc(-c3c(-c4ccco4)sc4ncnc(OC(Cc5ccccc5OC)C(=O)O)c34)c(C)c2Cl)C1 (stereo not shown)
(2) Cc1c(-c2c(-c3ccc(F)cc3)sc3ncnc(OC(Cc4ccccc4OCc4ccnc(OCc5cncn5C)n4)C(=O)O)c23)ccc(OCCN2CCN(C)CC2)c1Cl (stereo not shown)
(3) COc1nccc(COc2ccccc2CC(Oc2ncnc3sc(-c4ccc(Cl)o4)c(-c4ccc(OCCN5CCN(C)CC5)c(Cl)c4C)c23)C(=O)O)n1 (stereo not shown)
(4) COc1ccccc1CC(Oc1ncnc2sc(-c3ccco3)c(-c3ccc(OC4CCCCN(C)C4)c(Cl)c3C)c12)C(=O)O (single isomer, unassigned)
In: Kindly order the items shown according to IC50, from the highest value down. Give me the labels in the order the question wants.
Out: 4, 1, 3, 2
